TEST METHOD NOTES: Pharmacokinetic interaction of Triphala extract with midazolam in rats
ASSAY SETUP: male, Wistar, rat, plasma, po, 20 mg/kg, AUC, rats; midazolam 20 mg/kg oral; control (midazolam alone)
PROPERTY: AUC (ng·h/mL)
A number alone suffices; assume ng·h/mL.

Asked: Would you mind telling me what AUC value was observed for Cc1ncc2n1-c1ccc(Cl)cc1C(c1ccccc1F)=NC2 [midazolam] ?
Given back: 1070

* * *

ASSAY TARGET: P-gp (Homo sapiens, UniProt P08183)
Sequence (P08183 whole entry): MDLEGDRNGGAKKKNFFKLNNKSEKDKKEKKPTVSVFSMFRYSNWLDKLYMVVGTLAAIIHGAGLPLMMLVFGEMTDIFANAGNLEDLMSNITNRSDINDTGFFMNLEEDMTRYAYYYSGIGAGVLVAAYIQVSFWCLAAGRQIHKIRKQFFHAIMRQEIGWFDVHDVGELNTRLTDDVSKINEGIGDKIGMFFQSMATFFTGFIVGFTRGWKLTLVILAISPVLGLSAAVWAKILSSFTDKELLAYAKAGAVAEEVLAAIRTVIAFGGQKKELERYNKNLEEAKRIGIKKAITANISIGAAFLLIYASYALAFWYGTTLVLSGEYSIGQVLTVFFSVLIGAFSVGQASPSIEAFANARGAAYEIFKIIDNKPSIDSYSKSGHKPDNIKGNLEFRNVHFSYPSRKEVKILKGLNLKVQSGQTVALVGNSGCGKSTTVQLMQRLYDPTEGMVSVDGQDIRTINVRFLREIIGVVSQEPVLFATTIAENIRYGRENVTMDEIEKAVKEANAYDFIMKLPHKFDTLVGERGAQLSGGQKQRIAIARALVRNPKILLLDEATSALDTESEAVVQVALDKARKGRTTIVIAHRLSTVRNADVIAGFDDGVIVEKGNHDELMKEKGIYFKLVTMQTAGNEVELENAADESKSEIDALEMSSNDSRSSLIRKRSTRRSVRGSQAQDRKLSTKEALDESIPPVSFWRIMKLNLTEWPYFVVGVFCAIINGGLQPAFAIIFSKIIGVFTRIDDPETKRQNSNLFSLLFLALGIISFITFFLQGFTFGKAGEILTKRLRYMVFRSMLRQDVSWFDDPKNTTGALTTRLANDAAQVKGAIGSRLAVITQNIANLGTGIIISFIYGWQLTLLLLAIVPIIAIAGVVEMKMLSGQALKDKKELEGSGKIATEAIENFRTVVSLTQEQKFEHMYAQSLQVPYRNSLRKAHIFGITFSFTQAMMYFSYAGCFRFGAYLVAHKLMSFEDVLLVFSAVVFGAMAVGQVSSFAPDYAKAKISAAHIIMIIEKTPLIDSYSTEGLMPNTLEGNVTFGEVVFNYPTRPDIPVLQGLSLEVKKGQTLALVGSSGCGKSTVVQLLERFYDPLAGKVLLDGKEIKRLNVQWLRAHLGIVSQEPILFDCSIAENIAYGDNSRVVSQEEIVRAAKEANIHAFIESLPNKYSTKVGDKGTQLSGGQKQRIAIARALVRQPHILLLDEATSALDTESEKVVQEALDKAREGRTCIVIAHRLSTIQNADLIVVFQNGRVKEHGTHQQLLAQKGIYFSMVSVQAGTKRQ
TEST METHOD NOTES: Rhodamine-123 permeability across Caco-2 cell monolayers
ASSAY SETUP: Caco-2, pH 7.4
PROPERTY: Papp A→B at 120 min, 2.5 μg/mL (×10⁻⁶ cm/s)
A number alone suffices; assume ×10⁻⁶ cm/s.

Asked: Would you mind telling me what Papp A→B at 120 min, 2.5 μg/mL value was observed for COC(=O)c1ccccc1-c1c2ccc(=N)cc-2oc2cc(N)ccc12 ?
Given back: 64
